ASSAY SYSTEM: Wnt-responsive promoter (TCF/LEF)
ASSAY OVERVIEW: Wnt-dependent luciferase reporter assay
pEC50: −log10 of the molar value. Where a SMILES comes first, the peptide text is derived from it.
The entries below come with measured pEC50 values attached.
QUANTITY MEASURED: pEC50

1) CC[C@H](C)[C@@H]1NC(=O)[C@H](CC(C)C)NC(=O)[C@H](Cc2ccccc2)NC(=O)[C@H](Cc2c[nH]c3ccccc23)NC(=O)[C@@H](N)CCCCNC(=O)CC[C@@H](C(=O)O)NC(=O)[C@H](Cc2c[nH]c3ccccc23)NC(=O)[C@H](C)NC(=O)[C@H](CO)NC1=O [compound 183] (HELM PEPTIDE1{K.W.F.L.I.S.A.W.E}$PEPTIDE1,PEPTIDE1,1:R3-9:R3$$$V2.0) ... > 5.12
2) CC[C@H](C)[C@H](NC(=O)[C@H](CC(C)C)NC(=O)[C@H](Cc1ccccc1)NC(=O)[C@H](Cc1c[nH]c2ccccc12)NC(=O)[C@@H](N)CCSC)C(=O)N[C@@H](CO)C(=O)N[C@@H](Cc1ccccc1)C(=O)N[C@@H](Cc1c[nH]c2ccccc12)C(N)=O [compound 107] (H-MWFLISFW-NH2) ... 4.82 to 5.12
3) CC[C@H](C)[C@H](NC(=O)[C@H](CC(C)C)NC(=O)[C@H](Cc1ccccc1)NC(=O)[C@H](Cc1c[nH]c2ccccc12)NC(=O)[C@H](CCSC)NC(=O)[C@H](CCCNC(=N)N)NC(=O)[C@H](CO)NC(=O)[C@@H](N)CCSC)C(=O)N[C@@H](CO)C(=O)N[C@@H](CO)C(=O)N[C@@H](Cc1c[nH]c2ccccc12)C(=O)O [compound 99] (H-MSRMWFLISSW-OH) ... 4.52 to 4.65
4) CC[C@H](C)[C@H](NC(=O)[C@H](CC(C)C)NC(=O)[C@H](Cc1ccccc1)NC(=O)[C@H](Cc1c[nH]c2ccccc12)NC(=O)[C@@H](N)CCSC)C(=O)N[C@@H](CSC)C(=O)N[C@@H](Cc1ccccc1)C(=O)N[C@@H](Cc1c[nH]c2ccccc12)C(=O)NCC(=O)O [compound 214] (H-MWFLIC(Me)FWG-OH) ... > 5.12
5) CC[C@H](C)[C@H](NC(=O)[C@H](CC(C)C)NC(=O)[C@H](Cc1ccccc1)NC(=O)[C@H](Cc1c[nH]c2ccccc12)NC(=O)[C@@H](N)CCSC)C(=O)N[C@@H](CS)C(=O)N[C@@H](Cc1cncn1C)C(=O)N[C@@H](Cc1c[nH]c2ccccc12)C(=O)NCC(=O)O [compound 135] (HELM PEPTIDE1{M.W.F.L.I.C.[Cn1cncc1C[C@H](N[*:1])C(=O)[*:2]].W.G}$$$$V2.0) ... 4.82 to 5.12

###

ASSAY SYSTEM: Wnt-responsive promoter (TCF/LEF)
ASSAY OVERVIEW: Wnt-dependent luciferase reporter assay
pEC50: −log10 of the molar value. Where a SMILES comes first, the peptide text is derived from it.
QUANTITY MEASURED: pEC50

1. CC[C@H](C)[C@H](NC(=O)[C@H](CC(C)C)NC(=O)[C@H](Cc1ccccc1)NC(=O)[C@H](Cc1c[nH]c2ccccc12)NC(=O)[C@@H](N)CCSC)C(=O)N[C@@H](CS)C(=O)N[C@@H](Cc1ccccc1)C(=O)N[C@@H](Cc1c[nH]c2ccccc12)C(=O)NCCCC(=O)O [compound 153] (HELM PEPTIDE1{M.W.F.L.I.C.F.W.[O=C(O)CCCN[*:1]]}$$$$V2.0) ... > 5.12
2. CSCC[C@H](NC(=O)[C@H](CCCNC(=N)N)NC(=O)[C@H](CO)NC(=O)[C@@H](N)CCSC)C(=O)N[C@@H](Cc1c[nH]c2ccccc12)C(=O)N[C@@H](Cc1ccccc1)C(=O)N[C@@H](CC(C)C)C(=O)N[C@@H](Cc1ccccc1)C(=O)N[C@@H](CO)C(=O)N[C@@H](Cc1ccccc1)C(=O)N[C@@H](Cc1c[nH]c2ccccc12)C(=O)NCC(=O)O [compound 63] (H-MSRMWFLFSFWG-OH) ... > 5.12
3. CC[C@H](C)[C@H](NC(=O)[C@H](CC(C)C)NC(=O)[C@H](Cc1ccccc1)NC(=O)[C@H](C)NC(=O)[C@@H](N)CCSC)C(=O)N[C@@H](CO)C(=O)N[C@@H](Cc1ccccc1)C(=O)N[C@@H](Cc1c[nH]c2ccccc12)C(=O)NCC(=O)O [compound 210] (H-MAFLISFWG-OH) ... > 5.12
4. CC[C@H](C)[C@@H]1NC(=O)[C@H](CC(C)C)NC(=O)[C@H](Cc2ccccc2)NC(=O)[C@H](Cc2c[nH]c3ccccc23)NC(=O)[C@@H](NC(C)=O)CCCCNC(=O)CC[C@@H](C(=O)O)NC(=O)[C@H](Cc2c[nH]c3ccccc23)NC(=O)[C@H](Cc2ccccc2)NC(=O)[C@H](CS)NC1=O [compound 185] (HELM PEPTIDE1{[ac].K.W.F.L.I.C.F.W.E}$PEPTIDE1,PEPTIDE1,2:R3-10:R3$$$V2.0) ... 4.52 to 4.65
5. CC[C@H](C)[C@H](NC(=O)[C@H](CC(C)C)NC(=O)[C@@H](NC(=O)[C@H](Cc1c[nH]c2ccccc12)NC(=O)[C@H](CCSC)NC(C)=O)[C@@H](C)CC)C(=O)N[C@@H](CO)C(=O)N[C@@H](Cc1ccccc1)C(=O)N[C@@H](Cc1c[nH]c2ccccc12)C(=O)NCC(=O)OC [compound 222] (HELM PEPTIDE1{[ac].M.W.I.L.I.S.F.W.G.[CO[*:1]]}$$$$V2.0) ... 4.82 to 5.12
6. CC[C@H](C)[C@H](NC(=O)[C@H](CC(C)C)NC(=O)[C@H](Cc1ccccc1)NC(=O)[C@H](Cc1c[nH]c2ccccc12)NC(=O)[C@H](Cc1c[nH]cn1)NC(=O)[C@H](CCCNC(=N)N)NC(=O)[C@H](CO)NC(=O)[C@@H](N)Cc1c[nH]c2ccccc12)C(=O)N[C@@H](CO)C(=O)N[C@@H](Cc1ccccc1)C(=O)N[C@@H](Cc1c[nH]c2ccccc12)C(N)=O [compound 91] (H-WSRHWFLISFW-NH2) ... < 4.52
7. CC[C@H](C)[C@H](NC(=O)[C@H](CC(C)C)NC(=O)[C@@H](NC(=O)[C@H](Cc1c[nH]c2ccccc12)NC(=O)[C@H](CCSC)NCc1ccccc1)[C@@H](C)CC)C(=O)N[C@@H](CO)C(=O)N[C@@H](Cc1ccccc1)C(=O)N[C@@H](Cc1c[nH]c2ccccc12)C(=O)NCC(=O)O [compound 223] (HELM PEPTIDE1{[CSCC[C@H](NCc1ccccc1)C(=O)[*:2]].W.I.L.I.S.F.W.G}$$$$V2.0) ... > 5.12
8. CC[C@@H](C)[C@H]1NC(=O)[C@@H](CC(C)C)NC(=O)[C@@H](Cc2ccccc2)NC(=O)[C@H](Cc2c[nH]c3ccccc23)NC(=O)[C@@H](CCSC)NC(=O)CCCCCCCCCCCNC(=O)C[C@@H](C(=O)O)NC(=O)[C@H](Cc2c[nH]c3ccccc23)NC(=O)[C@@H](Cc2ccccc2)NC(=O)[C@H](CS)NC1=O [compound 190] (HELM PEPTIDE1{[O=C(CCCCCCCCCCCN[*:1])[*:2]].[dM].W.[dF].[dL].[dI].C.[dF].W.D}$PEPTIDE1,PEPTIDE1,1:R1-10:R3$$$V2.0) ... > 5.12
9. CC[C@H](C)[C@H](NC(=O)[C@H](CC(C)C)NC(=O)[C@H](Cc1c[nH]c2ccccc12)NC(=O)[C@H](Cc1c[nH]c2ccccc12)NC(=O)[C@H](CCSC)NC(=O)[C@H](CCCNC(=N)N)NC(=O)[C@H](CO)NC(=O)[C@@H](N)CCSC)C(=O)N[C@@H](CO)C(=O)N[C@@H](Cc1ccccc1)C(=O)N[C@@H](Cc1c[nH]c2ccccc12)C(N)=O [compound 80] (H-MSRMWWLISFW-NH2) ... < 4.52
